Biological target: DN-IV quality control recombinant protein (produced by the company) (dengue virus)
Assay: BLI, antibody on AMC sensor
Each record here notes measured kon.
The reply should contain only the number, in M⁻¹ s⁻¹.

Examples with their reported kon follow.
Mutation 1-17 (antibody, V domains shown) VH: EVQLQQPGPELVKPGASVKMSCKASGYTFTSYVIHWVRQKPGQGLEWIGYMNPYNDGIKYNEKFIGKAILTSDKSSSTAYMQLSSLTSEDSAVYYCTKEGLFYVMDYWGQGTSVTVSS VL: QIVLTQSPAIMSASPGEKVTMTCSATSSVSYMHWYQQKSGTSPKRWIYDSSKLASGVPVRFSGSGSGTSYSLTISSMEAEDAATYFCQWWRSDLPTFGAGTKLELKR : 45200
Mutation 1-6 (antibody, V domains shown) VH: EVQLQQPGPELVKPGASVKMSCKASGYTFTSTVIHWVRQKPGQGLEWIGYMNPYNDGIKYNEKFIGKAILTSDKSSSTAYMQLSSLTSEDSAVYYCTKEGLFYVMDYWGQGTSVTVSS VL: QIVLTQSPAIMSASPGEKVTMTCSATSSISYMHWYQQKSGTSPKRWIYDTSKLASGVPVRFSGSGSGTSYSLTISSMEAEDAATYFCQYWRSDLPTFGAGTKLELKR : 499000
WT (recombinant anti-dengue virus NS1 7F8 antibody of Example 2) (antibody, mouse IgG1, kappa, V domains shown) VH: EVQLQQPGPELVKPGASVKMSCKASGYTVTSYVIHWVRQKPGQGLEWIGYMNAYNDGIKYNEKFIGKAILTSDKSSSTAYMQLSSLTSEDSAVYYCTKEGLFYVMDYWGQGTSVTVSS VL: QIVLTQSPAIMSASPGEKVTMTCSATSSISYMHWYQQKSGTSPKRWIYDTSKLASPVPVRFSGSGSGTSYSLTISSMEAEDAATYFCQYWRSDLPTFGAGTKLELKR : 44200
Mutation 1-14 (antibody, V domains shown) VH: EVQLQQPGPELVKPGASVKMSCKASGYTFTSYVIHWVRQKPGQGLEWIGYMNPYNDGIKYNEKFIGKAILTSDKSSSTAYMQLSSLTSEDSAVYYCTKEGLFYVMDYWGQGTSVTVSS VL: QIVLTQSPAIMSASPGEKVTMTCSATSSVSYMHWYQQKSGTSPKRWIYDSSKLASGVPVRFSGSGSGTSYSLTISSMEAEDAATYFCQQWRSDLPTFGAGTKLELKR : 43600

Please examine the following record next.
// kon value for Mutation 1-2 (antibody, V domains shown) VH: EVQLQQPGPELVKPGASVKMSCKASGYTFTSYVIHWVRQKPGQGLEWIGYMNPYNDGLKYNEKFIGKAILTSDKSSSTAYMQLSSLTSEDSAVYYCTREGLFYVMDYWGQGTSVTVSS VL: QIVLTQSPAIMSASPGEKVTMTCSATSSVSYMHWYQQKSGTSPKRWIYDTSKLASGVPVRFSGSGSGTSYSLTISSMEAEDAATYFCQQWRSDLPTFGAGTKLELKR : 41600

These measurements were taken from patent US20210324054A1.
